Test: Aerosol performance of DPI formulations (Cyclohaler, NGI)
Assay type: physicochemical
Conditions: Cyclohaler, 5 capsules containing 20 mg powder blend; mass from weight change of capsule-loaded device
Counter-ions that a name gives are not always drawn.
A collection of compounds and their measured †Measured Mass of 1% w/w Blend Delivered per capsule
Write down the numeric answer in mg and omit the unit.

Consider the compound shown here: COc1cc2c(cc1OC)-c1c/c(=N\c3c(C)cc(C)cc3C)n(CCNC(N)=O)c(=O)n1CC2 [Sulfate, RPL554 sulfate] What is its recorded †Measured Mass of 1% w/w Blend Delivered per capsule?
19.78

----------
Test: Aerosol performance of DPI formulations (Cyclohaler, NGI)
Type: physicochemical
Conditions: calculated from delivered blend mass and measured blend content; as RPL554 base
A collection of compounds and their measured Calculated RPL554 Content (μg) per capsule (A)
Write down the numeric answer in µg and omit the unit.

A selection of reference data follows.
{"columns": ["COMPOUND", "QUANTITATIVE_RESULT"],
 "data": [
  ["COc1cc2c(cc1OC)-c1c/c(=N\\c3c(C)cc(C)cc3C)n(CCNC(N)=O)c(=O)n1CC2 [Benzenesulfonate, RPL554 benzenesulfonate]", 134.49],
  ["COc1cc2c(cc1OC)-c1c/c(=N\\c3c(C)cc(C)cc3C)n(CCNC(N)=O)c(=O)n1CC2 [p-Toluenesulfonate, RPL554 p-toluenesulfonate]", 130.46]
]}

Now look at this entry.
Consider the compound shown here: COc1cc2c(cc1OC)-c1c/c(=N\c3c(C)cc(C)cc3C)n(CCNC(N)=O)c(=O)n1CC2 [Ethane-1,2-disulfonate, RPL554 ethane-1,2-disulfonate] What is its recorded Calculated RPL554 Content (μg) per capsule (A)?
133.06

Reference source for all entries: patent US11491155B2
